Cited source: patent US20250108048A1

- target.or.system: mSTING (Mus musculus, UniProt Q3TBT3)
- Sequence (Q3TBT3 whole entry): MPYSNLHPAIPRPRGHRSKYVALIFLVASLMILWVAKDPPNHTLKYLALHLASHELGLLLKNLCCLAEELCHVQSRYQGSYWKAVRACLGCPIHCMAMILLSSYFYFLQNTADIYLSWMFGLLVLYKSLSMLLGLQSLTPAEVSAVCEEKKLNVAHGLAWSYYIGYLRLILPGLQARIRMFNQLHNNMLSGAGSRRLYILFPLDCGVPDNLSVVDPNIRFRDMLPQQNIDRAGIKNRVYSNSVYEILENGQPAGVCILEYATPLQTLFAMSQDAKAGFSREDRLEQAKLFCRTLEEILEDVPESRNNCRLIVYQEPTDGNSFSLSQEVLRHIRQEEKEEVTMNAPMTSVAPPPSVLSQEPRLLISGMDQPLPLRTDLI
- assay.procedure: 293-mSTING reporter assay
- Format: cell-based
quantity: EC50

Consider the worked cases shown below.
>  <compound>
CCn1nc(C)cc1C(=O)Nc1nc2cc(C(N)=O)ccc2n1C/C=C/Cn1c(NC(=O)c2cc(C)nn2CC)nc2cc(C(N)=O)cc(OCCCN3CC4(C3)CN(C(=O)CN)CCO4)c21

>  <target.or.system>
mSTING (Mus musculus, UniProt Q3TBT3)

>  <EC50>
> 150 nM

$$$$
>  <compound>
CCn1nc(C)cc1C(=O)Nc1nc2cc(C(N)=O)ccc2n1C/C=C/Cn1c(NC(=O)c2cc(C)nn2CC)nc2cc(C(N)=O)cc(OCCCN3CC4(C3)CN(C(=O)CON=C(C)c3ccc(C[C@H](N)C(=O)O)cc3)CCO4)c21 (racemic)

>  <target.or.system>
mSTING (Mus musculus, UniProt Q3TBT3)

>  <EC50>
> 150 nM

$$$$
>  <compound>
CCn1nc(C)cc1C(=O)Nc1nc2cc(C(N)=O)ccc2n1C/C=C/Cn1c(NC(=O)c2cc(C)nn2CC)nc2cc(C(N)=O)cc(OCCCN3CC4(CNCCO4)C3)c21

>  <target.or.system>
mSTING (Mus musculus, UniProt Q3TBT3)

>  <EC50>
> 150 nM

$$$$
>  <compound>
CCn1nc(C)cc1C(=O)Nc1nc2cc(C(N)=O)cc(OC)c2n1C/C=C/Cn1c(NC(=O)c2cc(C)nn2CC)nc2cc(C(N)=O)cc(OCCCN3CC4(CNCCO4)C3)c21

>  <target.or.system>
mSTING (Mus musculus, UniProt Q3TBT3)

>  <EC50>
50 to 150 nM

$$$$

## Task State its EC50 for this compound: "CCn1nc(C)cc1C(=O)Nc1nc2cc(C(N)=O)ccc2n1C/C=C/Cn1c(NC(=O)c2cc(C)nn2CC)nc2cc(C(N)=O)cc(OCCCN3CC4(C3)CN(C(=O)[C@@H](N)CC(C)C)CCO4)c21"
## Result > 150 nM
